# Tested on: OVCAR-8 ovarian
# experiment-summary: NCI-60 one-dose screen, 48 h
# experimental-setup: 10 µM unless noted
This is part of a sample that, as a whole, favours compounds with a hit. Of some 83,000 tested, about 20% had one in any assay. Activity calls are given as the source filed them. How the source made its calls: active means growth percent below 10; inactive means the rest.
Labels: active, inactive

• O=C(Nc1ncc(Cc2ccccc2Cl)s1)c1ccc2c(c1)OCCO2 = inactive
• CNC(=O)c1cc(Oc2ccc3nc(NC(=O)NC(C)C)sc3c2)ccn1 = inactive
• CC(=O)c1ccc(Nc2nccc(-c3ccc(Cl)cc3)n2)cc1 = inactive
• CSc1nc(CC(C)C)c(C#N)c(=O)n1C = inactive
• O=C(c1ccc(F)cc1)C1CCN(CCn2c(=O)[nH]c3ccccc3c2=O)CC1 = inactive
• CCOC(=O)c1c(C)n2c(=O)cc(C)c3c(OC(C)=O)c(OC(C)=O)cc1c32 = inactive
• CC(=O)/C(Br)=C/c1ccc(Br)o1 = inactive
• COc1ccc(NC(=O)c2ccc(Cl)cc2Cl)cc1 = inactive
• O=C1c2ccccc2C(=O)c2cc(Cn3c[n+](Cc4ccc5ccccc5c4)c4ccccc43)ccc21 = inactive
• COC(=O)c1ccc(-n2cc(CCCOS(=O)(=O)c3ccc(F)cc3)nn2)cc1 = inactive
• COc1ccc(C(c2cc(OC)c(OC)c(OC)c2)n2cncn2)cc1O (stereo unspecified) = inactive
• Cc1ccc(C2(C)NC(=O)N(CC(=O)Nc3cccc(C)c3)C2=O)cc1 (stereo unspecified) = inactive
• Cc1ccc(S(=O)(=O)c2nc(-c3ccccc3)oc2S(C)=O)cc1 (stereo unspecified) = active
• O=C1C2C(c3cccs3)C=C(c3ccc(Cl)cc3)N2C(=S)N1c1ccccc1 (stereo unspecified) = inactive
• Clc1ccc2c(NCCCn3cnc4c(N5CCCC5)nc(Cl)nc43)ccnc2c1 = inactive
• O=C(Nc1ccc2c(c1)-c1ccccc1C2)C1CC(=O)N(c2ccc3c(c2)OCO3)C1 (stereo unspecified) = inactive
• O=C(Nc1ccc2[nH]ncc2c1)c1csc(Nc2ccccc2)n1 = inactive
• CCOC(=O)C#Cc1c(CC(=O)OCC)nnn1[C@H]1O[C@@H](CO)[C@@H]2OC(C)(C)O[C@@H]21 = inactive
• C=C(C)[C@@H]1CCC[C@]2(C(=O)OC)CC[C@]3(C)[C@@H](CC[C@@H]4[C@@]5(C)CCCNC(C)(C)[C@@H]5CC[C@]43C)[C@@H]12 = inactive
• COC(=O)CNC(=O)c1ccc(NC(=O)c2[nH]c(C)c(Cl)c2Cl)c(O[C@H]2CCNC2)c1 = inactive
• CCN(CC)CCOc1ccc(/C(=C(\C)Cc2ccc(OC)cc2)c2ccc(O)cc2)cc1 = inactive
